The measurements presented in this section are drawn from the supplement of paper PMC10065799.

# target.under.test: Fes (UniProt P07332)
# Sequence (P07332 whole entry, looked up): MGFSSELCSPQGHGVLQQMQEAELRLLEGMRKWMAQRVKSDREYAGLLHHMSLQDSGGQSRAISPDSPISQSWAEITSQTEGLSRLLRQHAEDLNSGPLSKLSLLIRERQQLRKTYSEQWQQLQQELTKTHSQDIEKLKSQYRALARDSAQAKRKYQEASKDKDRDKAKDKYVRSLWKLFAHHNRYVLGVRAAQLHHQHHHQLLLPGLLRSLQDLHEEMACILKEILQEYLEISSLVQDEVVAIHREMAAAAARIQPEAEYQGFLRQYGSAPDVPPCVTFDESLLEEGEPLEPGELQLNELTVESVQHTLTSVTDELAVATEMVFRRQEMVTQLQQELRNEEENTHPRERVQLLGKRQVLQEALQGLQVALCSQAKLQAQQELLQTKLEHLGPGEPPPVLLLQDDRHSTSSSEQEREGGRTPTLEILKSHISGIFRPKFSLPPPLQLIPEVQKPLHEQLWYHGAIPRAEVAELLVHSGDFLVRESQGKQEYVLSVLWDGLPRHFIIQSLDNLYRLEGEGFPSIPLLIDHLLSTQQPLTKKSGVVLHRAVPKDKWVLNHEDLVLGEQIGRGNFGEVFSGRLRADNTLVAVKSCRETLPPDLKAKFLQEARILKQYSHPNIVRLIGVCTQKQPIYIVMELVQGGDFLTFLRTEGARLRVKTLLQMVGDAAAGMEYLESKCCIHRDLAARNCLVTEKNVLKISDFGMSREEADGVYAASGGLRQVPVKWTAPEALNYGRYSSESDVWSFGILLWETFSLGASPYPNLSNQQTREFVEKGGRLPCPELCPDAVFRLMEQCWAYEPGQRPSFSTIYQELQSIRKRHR
# method.summary: phosphorylation enrichment, bacterial display (enrichment ratio); higher = better substrate or ligand; peptides without Tyr show the background
Outcome label depends on phosphorylation enrichment relative to 0.9: at/above gives YES, below gives NO.

[
  {
    "seq": "GELQGYDIMEP [MSH2_Y863_S860L]",
    "group.label": "YES"
  },
  {
    "seq": "NFDRIYIYHLR [MYOF_Y1137_V1136I]",
    "group.label": "YES"
  },
  {
    "seq": "SGDDGYAKDAQ [TENM4_Y1530_K1535Q]",
    "group.label": "NO"
  },
  {
    "seq": "SAASGYSDVTD [DTX2_Y425_T421A]",
    "group.label": "YES"
  },
  {
    "seq": "TMKSHYMELFD [BBS2_Y644_R643H_YF]",
    "group.label": "YES"
  },
  {
    "seq": "QRRLVYYEGGA [RYR1_Y245]",
    "group.label": "YES"
  },
  {
    "seq": "QEIATYRRLRE [KRT17_Y384_L388R]",
    "group.label": "YES"
  },
  {
    "seq": "TLKVGYKEKQR [EPHA3_Y659_T660K]",
    "group.label": "NO"
  },
  {
    "seq": "RVNSAYQEKVS [ACAN_Y100_D102E]",
    "group.label": "NO"
  },
  {
    "seq": "MTFVFYRENLR [NLRP14_Y443_YF]",
    "group.label": "YES"
  },
  {
    "seq": "CTTIHKNFMCN [TP53_Y234_Y234K_YF]",
    "group.label": "NO"
  },
  {
    "seq": "IIGNGYYFHVF [MYBPC3_Y1135_R1138H]",
    "group.label": "YES"
  }
]

====

# target.under.test: SHP2-C SH2
# method.summary: SH2 binding enrichment of the phosphorylated peptide, bacterial display (enrichment ratio); higher = better substrate or ligand; peptides without Tyr show the background
property.label: SH2 binding enrichment

[
  {
    "seq": "LQPNNYQFCGG [CSF1R_Y969]",
    "target.under.test": "SHP2-C SH2",
    "readout.value": 0.889
  },
  {
    "seq": "FSLIHYAGIVV [MYH7_Y582_D587V]",
    "target.under.test": "SHP2-C SH2",
    "readout.value": 2.77
  },
  {
    "seq": "QGRQTYLPQPA [DDR2_Y813]",
    "target.under.test": "SHP2-C SH2",
    "readout.value": 0.44
  },
  {
    "seq": "REVPVYTDSEP [FAM120B_Y368]",
    "target.under.test": "SHP2-C SH2",
    "readout.value": 0.351
  },
  {
    "seq": "AIIGIYILRDD [CDH23_Y2949]",
    "target.under.test": "SHP2-C SH2",
    "readout.value": 1.11
  },
  {
    "seq": "RVNSAYQEKVS [ACAN_Y100_D102E]",
    "target.under.test": "SHP2-C SH2",
    "readout.value": 0.529
  },
  {
    "seq": "ARGMEYLAEQK [MST1R_Y1198_G1195S]",
    "target.under.test": "SHP2-C SH2",
    "readout.value": 0.603
  }
]

====

# target.under.test: Hck (UniProt P08631)
# Sequence (P08631 whole entry, looked up): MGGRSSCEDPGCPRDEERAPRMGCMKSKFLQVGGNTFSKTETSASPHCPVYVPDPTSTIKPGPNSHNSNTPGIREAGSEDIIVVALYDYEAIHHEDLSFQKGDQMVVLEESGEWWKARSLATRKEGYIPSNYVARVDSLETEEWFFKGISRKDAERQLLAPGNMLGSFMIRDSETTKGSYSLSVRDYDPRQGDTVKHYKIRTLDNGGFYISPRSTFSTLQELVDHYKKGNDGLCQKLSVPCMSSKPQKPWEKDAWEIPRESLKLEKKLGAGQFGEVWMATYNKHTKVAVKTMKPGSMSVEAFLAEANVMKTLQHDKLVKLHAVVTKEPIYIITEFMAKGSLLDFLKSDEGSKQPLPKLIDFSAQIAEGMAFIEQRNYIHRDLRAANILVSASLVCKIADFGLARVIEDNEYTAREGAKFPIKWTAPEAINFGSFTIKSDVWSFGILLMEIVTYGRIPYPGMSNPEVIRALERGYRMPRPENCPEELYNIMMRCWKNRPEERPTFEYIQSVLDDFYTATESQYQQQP
# method.summary: phosphorylation enrichment, bacterial display (enrichment ratio); higher = better substrate or ligand; peptides without Tyr show the background
sequences and their reported phosphorylation enrichment

[
  {
    "seq": "TFYQMYDKGLV [IARS2_Y231]",
    "phosphorylation enrichment": 3.46
  },
  {
    "seq": "IVFTSYVLTIL [TAS2R16_Y239_F240V]",
    "phosphorylation enrichment": 0.623
  },
  {
    "seq": "ADYPDYKYRPR [SOX11_Y116]",
    "phosphorylation enrichment": 0.505
  },
  {
    "seq": "LDYNEYVRDLN [HPRT1_Y198_F199V]",
    "phosphorylation enrichment": 0.712
  },
  {
    "seq": "WAMLAYNRSKL [WWOX_Y293]",
    "phosphorylation enrichment": 0.435
  },
  {
    "seq": "SAASGYSDVTD [DTX2_Y425_T421A]",
    "phosphorylation enrichment": 0.458
  },
  {
    "seq": "YENGEYIIRQG [PRKG1_Y247]",
    "phosphorylation enrichment": 0.589
  },
  {
    "seq": "PQGVSYIYTID [DCX_Y103_R102S]",
    "phosphorylation enrichment": 5.22
  },
  {
    "seq": "DLDTDYGSGFP [RNASEH2A_Y206_YF]",
    "phosphorylation enrichment": 0.49
  },
  {
    "seq": "FRAPGYREVVI [TNS2_Y673_YF]",
    "phosphorylation enrichment": 0.416
  },
  {
    "seq": "TQTPPYVKKHR [LARP1B_Y457_P462R]",
    "phosphorylation enrichment": 0.649
  },
  {
    "seq": "FADIAYNFHHG [PAH_Y166_R169H_YF]",
    "phosphorylation enrichment": 0.528
  },
  {
    "seq": "QFKDKYLAKHN [CASK_Y712_YF]",
    "phosphorylation enrichment": 0.384
  },
  {
    "seq": "SQSKGYRPKLF [SIPA1L3_Y1376_G1371S_YF]",
    "phosphorylation enrichment": 0.41
  }
]

====

# target.under.test: Fes (UniProt P07332)
# method.summary: phosphorylation enrichment, bacterial display (enrichment ratio); higher = better substrate or ligand; peptides without Tyr show the background
sequences and their reported phosphorylation enrichment

[
  {
    "seq": "ECKLRYSRKEG [PTPN11_Y263_L262R]",
    "phosphorylation enrichment": 0.606
  },
  {
    "seq": "KKLAEYGPQGK [CLCA1_Y147_R152K]",
    "phosphorylation enrichment": 0.498
  },
  {
    "seq": "FSAPNCCYRCG [PPP2CA_Y265_Y265C]",
    "phosphorylation enrichment": 1.21
  },
  {
    "seq": "SGPRRYTMAAL [TTR_Y125_I127M]",
    "phosphorylation enrichment": 0.611
  },
  {
    "seq": "VTDGKYAFKPK [GTF2E2_Y137_I133T]",
    "phosphorylation enrichment": 0.64
  },
  {
    "seq": "RNGNRYFKGIV [DCX_Y64_D62N]",
    "phosphorylation enrichment": 0.607
  },
  {
    "seq": "RSRSPYSPVLR [CDK13_Y399]",
    "phosphorylation enrichment": 0.854
  },
  {
    "seq": "DAPVVYLGSFG [PRAG1_Y132_R137G]",
    "phosphorylation enrichment": 0.851
  },
  {
    "seq": "WRPFGYPCRRR [BCS1L_Y181_R183C]",
    "phosphorylation enrichment": 0.643
  },
  {
    "seq": "KWLEQYTQAIE [LSP1_Y234_Q229K]",
    "phosphorylation enrichment": 0.977
  },
  {
    "seq": "LSKDLYLISQM [LARP4_Y141]",
    "phosphorylation enrichment": 1.63
  },
  {
    "seq": "VSKGGYFSVNL [C3orf33_Y164]",
    "phosphorylation enrichment": 0.972
  },
  {
    "seq": "PLQKTYNHNVL [SLC4A1_Y553_Y555H]",
    "phosphorylation enrichment": 0.946
  },
  {
    "seq": "PTTKTYFPQFD [HBA1_Y43_H46Q]",
    "phosphorylation enrichment": 0.922
  }
]

====

# target.under.test: c-Src SH2
# method.summary: SH2 binding enrichment of the phosphorylated peptide, bacterial display (enrichment ratio); higher = better substrate or ligand; peptides without Tyr show the background
sequences and their reported SH2 binding enrichment

[
  {
    "seq": "KELAPYDENRF [RPS19_Y48_W52R]",
    "target.under.test": "c-Src SH2",
    "SH2 binding enrichment": 0.605
  },
  {
    "seq": "VDGSLYKTHPQ [HK1_Y417]",
    "target.under.test": "c-Src SH2",
    "SH2 binding enrichment": 0.465
  },
  {
    "seq": "AACQHYGVRTC [NR4A2_Y275]",
    "target.under.test": "c-Src SH2",
    "SH2 binding enrichment": 0.721
  },
  {
    "seq": "SDYYAYSPVQE [H6PD_Y449_R453Q]",
    "target.under.test": "c-Src SH2",
    "SH2 binding enrichment": 1.3
  },
  {
    "seq": "PIFEGYALPHA [ACTA1_Y171_YF]",
    "target.under.test": "c-Src SH2",
    "SH2 binding enrichment": 4.62
  },
  {
    "seq": "AFQGKYTPSGQ [ALDOA_Y343_C339Y_YF]",
    "target.under.test": "c-Src SH2",
    "SH2 binding enrichment": 0.592
  },
  {
    "seq": "EFISEHCGEII [EZH2_Y641_Y641H]",
    "target.under.test": "c-Src SH2",
    "SH2 binding enrichment": 0.633
  },
  {
    "seq": "WRPFGYPCRRR [BCS1L_Y181_R183C]",
    "target.under.test": "c-Src SH2",
    "SH2 binding enrichment": 0.435
  },
  {
    "seq": "QSVEPYTKQQL [STAT3_Y640]",
    "target.under.test": "c-Src SH2",
    "SH2 binding enrichment": 0.528
  },
  {
    "seq": "RNFVHYVQGLK [VWF_Y1400_R1399H]",
    "target.under.test": "c-Src SH2",
    "SH2 binding enrichment": 0.7
  },
  {
    "seq": "RFFTTYDTNGR [CLCA1_Y665_YF]",
    "target.under.test": "c-Src SH2",
    "SH2 binding enrichment": 0.532
  },
  {
    "seq": "NLNGKYNKPRA [ANGPTL3_Y417]",
    "target.under.test": "c-Src SH2",
    "SH2 binding enrichment": 1.18
  },
  {
    "seq": "PNRILYGDFQQ [MYH7_Y715_R719Q]",
    "target.under.test": "c-Src SH2",
    "SH2 binding enrichment": 0.503
  },
  {
    "seq": "RSRSPYSPVLR [CDK13_Y399]",
    "target.under.test": "c-Src SH2",
    "SH2 binding enrichment": 0.66
  },
  {
    "seq": "SLEKGYELPDG [ACTC1_Y242_S241G]",
    "target.under.test": "c-Src SH2",
    "SH2 binding enrichment": 5.21
  },
  {
    "seq": "GYRVYYTPDSR [PTPRF_Y451]",
    "target.under.test": "c-Src SH2",
    "SH2 binding enrichment": 2.77
  },
  {
    "seq": "PTTKTYFLHFD [HBA1_Y43_P45L]",
    "target.under.test": "c-Src SH2",
    "SH2 binding enrichment": 0.985
  },
  {
    "seq": "EFDRLYEEFTR [PIK3R1_Y467_YF]",
    "target.under.test": "c-Src SH2",
    "SH2 binding enrichment": 0.516
  },
  {
    "seq": "DNEALYDTCFR [TUBB2B_Y208_I210T]",
    "target.under.test": "c-Src SH2",
    "SH2 binding enrichment": 0.56
  },
  {
    "seq": "ESTPLYPMLFG [SCLY_Y280_F276S]",
    "target.under.test": "c-Src SH2",
    "SH2 binding enrichment": 0.554
  },
  {
    "seq": "IINENYDYLKV [NUP98_Y1664_G1669V]",
    "target.under.test": "c-Src SH2",
    "SH2 binding enrichment": 0.595
  },
  {
    "seq": "DFSLKYATDIP [APC_Y1183_YF]",
    "target.under.test": "c-Src SH2",
    "SH2 binding enrichment": 0.457
  },
  {
    "seq": "EVGRVYLFLQP [ITGA2B_Y360]",
    "target.under.test": "c-Src SH2",
    "SH2 binding enrichment": 0.417
  },
  {
    "seq": "TMKSHYMELFD [BBS2_Y644_R643H_YF]",
    "target.under.test": "c-Src SH2",
    "SH2 binding enrichment": 7.06
  },
  {
    "seq": "SISYDYCRVPM [BST2_Y8_T4I]",
    "target.under.test": "c-Src SH2",
    "SH2 binding enrichment": 0.831
  },
  {
    "seq": "KVPRHYDDPGK [FOXG1_Y246]",
    "target.under.test": "c-Src SH2",
    "SH2 binding enrichment": 1.56
  },
  {
    "seq": "KAIMTYVFSFF [ACTN4_Y260_S262F_YF]",
    "target.under.test": "c-Src SH2",
    "SH2 binding enrichment": 0.888
  },
  {
    "seq": "RASGIYYVPKG [APBB1IP_Y340]",
    "target.under.test": "c-Src SH2",
    "SH2 binding enrichment": 0.955
  },
  {
    "seq": "KPEKTYGLRNE [CEP43_Y267_K271N]",
    "target.under.test": "c-Src SH2",
    "SH2 binding enrichment": 0.534
  }
]
